# protocol_notes: Pharmacokinetic study after a single oral administration to mice
# Format: in vivo
# measurement_context: female Balb/c mice, single oral 100 mg/kg; time zero to tlast; 100 mg/kg
readout: AUC0-t (ng·h/mL)

CCCCCCCCCCCCCCCCN(C)CC(O)CS(=O)(=O)O (stereo not shown) [TN-0382.11] : 3535
CCCCCCCCCCCCCCCCN(C)CC(O)CS(=O)(=O)O (stereo not shown) [KP-0726.11] : 3744
CCCCCCCCCCCCCCCCN(C)CC(O)CS(=O)(=O)O (stereo not shown) [2208-CF/1] : 4400
CCCCCCCCCCCCCCCCN(C)CC(O)CS(=O)(=O)O (stereo not shown) [KP-0722.11] : 3162

Origin of measurements: patent US11453642B2
